Reference source: paper PMC3553997

- TGT: T1, XylR (Thermotoga maritima MSB8, UniProt Q9WXW5 1-378)
- T1 sequence: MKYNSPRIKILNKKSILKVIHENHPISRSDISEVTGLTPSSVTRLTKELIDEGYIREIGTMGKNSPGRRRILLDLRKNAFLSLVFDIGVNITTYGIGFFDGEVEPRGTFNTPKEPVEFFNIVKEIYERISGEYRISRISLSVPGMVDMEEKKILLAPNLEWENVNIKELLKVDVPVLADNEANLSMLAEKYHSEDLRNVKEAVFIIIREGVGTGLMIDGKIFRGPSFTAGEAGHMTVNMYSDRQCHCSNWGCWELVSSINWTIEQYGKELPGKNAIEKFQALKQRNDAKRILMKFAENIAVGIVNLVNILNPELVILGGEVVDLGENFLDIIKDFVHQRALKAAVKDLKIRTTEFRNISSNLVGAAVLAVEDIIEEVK
- ASSAY_METHOD_TEXT: EMSA
Documented binding signal across a set of binders
// note: answer is a bare numeric in nM

Prompt line: What does the record list as binding signal for xynA site (dsDNA) DNA 1: TCGAAGAAGCTCAATTTTTTCTTTACAAAAAATAACTTTAGGGTGATAT DNA 2: ATATCACCCTAAAGTTATTTTTTGTAAAGAAAAAATTGAGCTTCTTCGA ?
Response line: 2.5

Prompt line: What does the record list as binding signal for xylR site (dsDNA) DNA 1: ACCTTGATTTTAAATTATTTCCTGCATATAATTAATGTGAACATAATAT DNA 2: ATATTATGTTCACATTAATTATATGCAGGAAATAATTTAAAATCAAGGT ?
Response line: 2.5

Prompt line: What does the record list as binding signal for xylA site (dsDNA) DNA 1: CCCAAGATTTTATATAATTGATTGATAGAAAAAATTTAGGGAGGTGTTT DNA 2: AAACACCTCCCTAAATTTTTTCTATCAATCAATTATATAAAATCTTGGG ?
Response line: 5

Others:
Prompt line: What does the record list as binding signal for xloE site (dsDNA) DNA 1: AGATTTACATTAAAATATTTCCCGAAAGGAAAAAATATAACATACAATC DNA 2: GATTGTATGTTATATTTTTTCCTTTCGGGAAATATTTTAATGTAAATCT ?
Response line: 5
